Species on record: Rattus norvegicus
measurement notes: Open TG-GATES - Regimen: Daily Repeat
Type: toxicity, organism-based, Sprague-Dawley
Parameters: regimen Daily Repeat, gender Male, age 6 weeks
test settings: in vivo, po, 0 mg/kg, […], tissue Plasma, route gavage, dose level Control, time 28 day
recorded metric: gamma-GTP (IU/L)
Number only, in IU/L; omit the unit.

Please review the following examples before continuing.
In [3]: df
Out[3]:
                            compound  endpoint_result
0  CC(=O)Oc1cc(C(C)C)c(OCCN(C)C)cc1C              1.5
1               CN1C(=O)OC(C)(C)C1=O                1
2    C[C@](N)(Cc1ccc(O)c(O)c1)C(=O)O                1
3            CC(=N)S [THIOACETAMIDE]              1.2
4            CC(C)(S)[C@@H](N)C(=O)O              1.2
5                     O=C(O)c1cccnc1              2.4
6   Nc1nc(N)c2nc(-c3ccccc3)c(N)nc2n1                1

Turning to the following compound.
Recorded result, Oc1ncnc2[nH]ncc12 , gamma-GTP: 1.4

----------
Reported A/G values for a set of compounds
Species on record: Rattus norvegicus
measurement notes: Open TG-GATES - Regimen: Single
Assay type: toxicity, organism-based, Sprague-Dawley
Design: regimen Single, gender Male, age 6 weeks
test settings: in vivo, po, 0 mg/kg, 6 h, tissue Plasma, route gavage, dose level Control
Just the number.

In [3]: df
Out[3]:
                            compound  recorded_metric  endpoint_result
0  CC(=O)Oc1cc(C(C)C)c(OCCN(C)C)cc1C              A/G              1.3
1            CC(C)(S)[C@@H](N)C(=O)O              A/G              0.9
2    C[C@](N)(Cc1ccc(O)c(O)c1)C(=O)O              A/G              0.9

For reference, reported A/G for C[C@]12CCC(=O)C=C1CC[C@@H]1[C@@H]2CC[C@@]2(C)[C@H]1CC[C@]2(C)O stands at 0.9

Just so you know, measured A/G for CC(C)C(=O)Nc1ccc([N+](=O)[O-])c(C(F)(F)F)c1 [FLUTAMIDE] came out at 1.8

----------
Species: Rattus norvegicus
measurement notes: Open TG-GATES - Regimen: Daily Repeat
Type: toxicity, organism-based, Sprague-Dawley
Set-up: regimen Daily Repeat, gender Male, age 6 weeks
test settings: in vivo, po, 100 mg/kg, […], tissue Plasma, route gavage, dose level Low, time 28 day
recorded metric: DBIL

For orientation, consider the following solved cases.
>>> df
                                   molecule  endpoint_result
0                   O=C(O)c1cccnc1 [NIACIN]          0 mg/dL
1  CCN1CCCC1CNC(=O)c1cc(S(N)(=O)=O)ccc1OC (centres undefined) [SULPIRIDE]      0.008 mg/dL
2  O=C(N[C@H](CO)[C@H](O)c1ccc([N+](=O)[O-])cc1)C(Cl)Cl [CHLORAMPHENICOL]       0.02 mg/dL

Read the next record carefully.
Form field DBIL, entry CC(C)(S)[C@@H](N)C(=O)O [PENICILLAMINE] : 0.01 mg/dL
